The following compounds are shown together with reported Population Tubulin-Different-Phenotype (%) values.
Test system: HEK-293T
Test: Multiplex assay against HEK293T;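 further: share of the cells with healthy nuclei that show this phenotype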
Type: toxicity, cell-based
Settings: human, 12 h, 1 µM, compound concentration 1 uM, replicate 1

# annotated cases, reported Population Tubulin-Different-Phenotype (%) shown
compound: CC(Cc1ccc(O)c(O)c1)C(C)Cc1ccc(O)c(O)c1 (stereo unspecified) [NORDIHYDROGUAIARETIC ACID]
reading: 6%

compound: N#Cc1cccc(C(=O)Nc2cc(-c3ccccc3)nn2-c2ccccc2)c1
reading: 64%

-- ask What does the data say about its Population Tubulin-Different-Phenotype (%)? Entry: `CC[C@H](Nc1ncnc2[nH]cnc12)c1nc2cccc(F)c2c(=O)n1-c1ccccc1`
-- reply 29%

-- ask Please answer likewise for `C[C@@H](Oc1cc(-n2cnc3ccc(CN4CCN(C)CC4)cc32)sc1C(N)=O)c1ccccc1C(F)(F)F`
-- reply 96%

-- ask Please answer likewise for `CC(/C=C1\SC(=S)N(CCCC(=O)Nc2ccc(C(=O)O)c(O)c2)C1=O)=C\c1ccccc1`
-- reply 34%

-- ask Please answer likewise for `CC[C@@H]1C(=O)N(C)c2cnc(Nc3ccc(C(=O)NC4CCN(C)CC4)cc3OC)nc2N1C1CCCC1`
-- reply 14%
